# System: CEM cells HIV-1 protection, formazan growth assay
# Test Summary: NCI AIDS Antiviral Assay
# Measurement Parameters: measured here: growth of uninfected CEM cells
Measured Metric: pIC50
Kindly note that pIC50 refers to -log10 of the concentration in mol/L and answer with the value alone.

Field: example entries. Status: answers known.
>>> print(df.to_string())
                                   compound                         target_under_test  measured_metric  readout_number
0  COc1ccc2c(c1)CC1Cc3cc(OC)c(OC)cc3CN1CC2 (configuration not stated)  CEM cells HIV-1 protection, formazan growth assay            pIC50            4.63
1  O=C(NCc1ccc(Cl)c(Cl)c1)c1nc2ccccc2nc1NCc1ccc(Cl)c(Cl)c1  CEM cells HIV-1 protection, formazan growth assay            pIC50            4.26
2  COc1ccc(C2OCC3C2CO[C@H]3c2ccc(OC)c(OC)c2)cc1OC (mixture of isomers)  CEM cells HIV-1 protection, formazan growth assay            pIC50            4.03
3       CCOP(=O)(OCC)/C(C#N)=C/c1ccc(Cl)cc1  CEM cells HIV-1 protection, formazan growth assay            pIC50            3.71
4  COc1ccc(C2(O)c3ccccc3C(=O)N(C)C2(O)c2ccc(OC)cc2)cc1 (configuration not stated)  CEM cells HIV-1 protection, formazan growth assay            pIC50            4.43

Name the reported pIC50 value associated with the compound `O=C(NC12CC3CC(CC(F)(C3)C1)C2)c1ccccc1`
4.28

Name the reported pIC50 value associated with the compound `OCCN1CCN(CCCN2c3ccccc3Sc3ccc(Cl)cc32)CC1`
5.00

Name the reported pIC50 value associated with the compound COc1ccc(C(Cc2ccccc2)C2NC(=S)NC2=O)cc1 (configuration not stated)
4.23

Name the reported pIC50 value associated with the compound CCCCCCCCCCCCC/C=C/[C@H]1[C@@H](C(=O)OC)N1S(=O)c1ccc(C)cc1 (some centres not stated)
4.13
